Cited source for all entries: the MegaScale stability set (Tsuboyama et al. 2023)

B1: EEHEE_rd4_0003 (parent)
chain: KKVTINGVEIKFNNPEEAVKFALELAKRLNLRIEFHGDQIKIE

Variants of: B1
METHOD DESCRIPTION: folding stability dG (cDNA display proteolysis); higher = more stable
REPORTED CONDITIONS: PBS, room temperature
Everything with folding stability dG lower than 10 kJ/mol is no (0); everything else, including exactly 10 kJ/mol, is yes (1).

> print(dat)
    alteration  qualitative.label
 1        F12S             no (0)
 2         I5R             no (0)
 3        P15H            yes (1)
 4        H36E            yes (1)
 5         G7E             no (0)
 6        L29D             no (0)
 7        K11T            yes (1)
 8        V19E             no (0)
 9        K20Y            yes (1)
10        I40L             no (0)
11        L29Y            yes (1)
12        I40R             no (0)
13        N30F            yes (1)
14         E9H            yes (1)
15        I42L            yes (1)
16        K41P             no (0)
17        L25W            yes (1)
18         I5F            yes (1)
19        I40W             no (0)
20         K2G             no (0)
21         V3W             no (0)
22        P15C            yes (1)
23        A26K             no (0)
24        P15V            yes (1)
25        R28Y            yes (1)
26        E16L            yes (1)
27        N14L            yes (1)
28         K1N            yes (1)
29        L23M            yes (1)
30        E17A            yes (1)
31        K27M            yes (1)
32        F21Q             no (0)
33        E43H            yes (1)
34        E43M            yes (1)
35        H36Y            yes (1)
36        F35W            yes (1)
37        V19S             no (0)
38        A18N             no (0)
39        E16C            yes (1)
40        P15E            yes (1)
41        K20P             no (0)
42        F12N             no (0)
